# tgt: T1, human CXCR4 (CXCR4 positive lipoparticles) (Homo sapiens, UniProt P61073)
# T1 construct: purchased Integral Molecular LEV-101B
# protocolSummary: Biacore SPR kinetic binding to immobilised CXCR4 lipoparticles
# setupConditions: off-rate, CXCR4 expressed on lipoparticles (Table 3)
Use YES when the recorded dissociation rate constant (kd) is no lower than 0.01; use NO when it is lower.

molecule	answerLabel
AM4-1121: affinity matured CXCR4 i-body, SEQ ID NO: 48 (protein, protein sequence encoding AM4-1121) LQVDIVPSQGEISVGESKFFLCQVAGSKSGIRISWFSPNGEKLTPNQQRISVVWNDDSSSTLTIYNANIDDAGIYKCVVYRTGGYRHRYLRLGEATVNVKIFQ	YES
AM3-466: affinity matured CXCR4 i-body, SEQ ID NO: 64 (protein, protein sequence encoding AM3-466) LQVDIVPSQGEISVGESKFFLCQVAGSGSHQRISWFSPNGEKLTPNQQRISVVWNDDSSSTLTIYNANIDDAGIYKCVVWRTGAYRHRALVLGEATVNVKIFQ	NO
AM3-32: affinity matured i-body, CDR1 SEQ ID NO: 91, CDR3 SEQ ID NO: 92 (protein) LQVDIVPSQGEISVGESKFFLCQVAGSGSGITISWFSPNGEKLTPNQQRISVVWNDDSSSTLTIYNANIDDAGIYKCVVWRTGVYRHRALVLGEATVNVKIFQ	YES
AM4-757: affinity matured i-body, CDR1 SEQ ID NO: 93, CDR3 SEQ ID NO: 94 (protein) LQVDIVPSQGEISVGESKFFLCQVAGSKSAIRISWFSPNGEKLTPNQQRISVVWNDDSSSTLTIYNANIDDAGIYKCVVYRTGSYRHRYLVLGEATVNVKIFQ	YES
AM4-613: affinity matured CXCR4 i-body, SEQ ID NO: 52 (protein, protein sequence encoding AM4-613) LQVDIVPSQGEISVGESKFFLCQVAGSKSDVRISWFSPNGEKLTPNQQRISVVWNDDSSSTLTIYNANIDDAGIYKCVVWRTGGYRHRYLVLGEATVNVKIFQ	YES
AM4-352: affinity matured i-body, CDR1 SEQ ID NO: 97, CDR3 SEQ ID NO: 98 (protein) LQVDIVPSQGEISVGESKFFLCQVAGSKDDIRISWFSPNGEKLTPNQQRISVVWNDDSSSTLTIYNANIDDAGIYKCVVYRTGGYRHRYLVLGEATVNVKIFQ	YES

Where do these numbers come from? They come from patent US11142588B2.
